Test system: CHO cells
Assay: CHO cell cytotoxicity assay in 1536-well format (ATP content counter-screen)
Type: cell-based, Chinese hamster
Conditions: Cricetulus griseus, CHO; concentration at which 50% of DMSO control ATP levels are detected; 48 hours
Method: For the viability assay in 1536-well format, 2 μL media was dispensed per well into 1536-well white solid-bottom plates using Multidrop Combi dispenser. Subsequently, 23 nL/well compound solutions or DMSO controls were dispensed to the assay plates via a pintool workstation. […] Subsequently, ATP content was measured following the addition of 4 μL/well of ATPLite reagent and a 20 min incubation on a ViewLux plate reader. […]
Structures can show the parent of a compound that is named as a salt.
Please respond with 1 (yes) when measured IC50 is strictly beneath 400 nM, and with 0 (no) in all other cases.

Record CC[C@]1(O)C[C@@H]2C[N@@](CCc3c([nH]c4ccccc34)[C@@](C(=O)OC)(c3cc4c(cc3OC)N(C)[C@H]3[C@@](O)(C(=O)OC)[C@H](OC(C)=O)[C@]5(CC)C=CCN6CC[C@]43[C@@H]65)C2)C1 [Vinblastine sulfate] : is its IC50 strictly below 400 nM? 1 (yes)

Given the entry CC(=O)[C@]1(O)Cc2c(O)c3c(c(O)c2[C@@H](O[C@H]2C[C@H](N)[C@H](O)[C@H](C)O2)C1)C(=O)c1ccccc1C3=O [Idarubicin HCl] , would its reported IC50 be below 400 nM? 1 (yes)

Bench note: check whether O=[N+]([O-])c1ccc(OC2OC(CO)C(O)C(O)C2F)c([N+](=O)[O-])c1 (stereo not drawn) shows IC50 below 400 nM 0 (no)

Is the reported IC50 for C=CCNC1=C2C[C@@H](C)C[C@H](OC)[C@H](O)[C@@H](C)/C=C(\C)[C@H](OC(N)=O)[C@@H](OC)/C=C\C=C(/C)C(=O)NC(=CC1=O)C2=O strictly below 400 nM? 0 (no)

Consider the molecule O=C1c2c(O)ccc(O)c2C(=O)c2c(NCCNCCO)ccc(NCCNCCO)c21 . Is its IC50 strictly less than 400 nM? 0 (no)

For this molecule, is IC50 lower than 400 nM? CCCCc1ccc2[nH]c(NC(=O)OC)nc2c1 0 (no)
